Protocol description: chemical genetic growth profiling, strain panel (AID 1159580);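 also: tested at 20 µM; growth read once vehicle control cultures reached saturation at 30 °C; 1 = growth at the plate median or of vehicle wells; lower values mean less growth of the strain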
Measurement parameters: S. cerevisiae deletion strains, growth OD, locus YOL136C, strain PFK27
Among all 5,500 compounds or so, about 2,000 (36%) were called active. Roughly 18% stayed inconclusive and do not appear here. Rule as the data show it: active = normalized growth mostly below about 0.91 (no sharp cut-off); inconclusive = no clear call, values can overlap the other calls; inactive = mostly above about 0.92. The list shows a part of the results.
Classes used: active, inactive

[[record]]
compound = "O=C(NNc1ccccc1)c1cc(-c2ccc(Cl)cc2)oc1C(F)(F)F"
label = "inactive"

[[record]]
compound = "N/C(=N/O)c1ccc(Oc2ccc(C3SCCS3)cc2)c([N+](=O)[O-])c1"
label = "inactive"

[[record]]
compound = "CC1=CC(=O)N(c2ccc(OC(F)(F)F)cc2)C1=O"
label = "active"

[[record]]
compound = "CCOC(=O)c1sc(S(C)=NC(=O)Nc2ccc(Cl)cc2)c2c1CCC=C2 (configuration not stated)"
label = "inactive"

[[record]]
compound = "Cc1noc(C)c1S(=O)(=O)Nc1csc(C(F)(F)F)c1-c1ccccc1"
label = "inactive"

[[record]]
compound = "O=S(=O)(Nc1csc(C(F)(F)F)c1-c1ccccc1)c1cc(Br)c(Br)s1"
label = "inactive"

[[record]]
compound = "Cn1nccc1-c1cc(Cl)cc(Cl)c1O"
label = "inactive"

[[record]]
compound = "O=S(=O)(NCc1cc(Cl)cc(Cl)c1)c1cc(C(F)(F)F)cc(C(F)(F)F)c1"
label = "inactive"

[[record]]
compound = "O=C(Nc1ccncc1)c1cc(-c2ccccc2)oc1C(F)(F)F"
label = "inactive"

[[record]]
compound = "COc1ccc(Nc2nc(NC(=O)Nc3ccc(Cl)cc3)n[nH]2)cc1"
label = "inactive"

[[record]]
compound = "Nc1ccccc1C(=O)Nc1cc(C(F)(F)F)cc(C(F)(F)F)c1"
label = "inactive"

[[record]]
compound = "CC1=CC(=O)N(c2ccc(F)c(Cl)c2)C1=O"
label = "active"


###

Listed compounds paired with reported normalized growth
Protocol description: chemical genetic growth profiling, strain panel (AID 1159580);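 also: tested at 20 µM; growth read once vehicle control cultures reached saturation at 30 °C; 1 = growth at the plate median or of vehicle wells; lower values mean less growth of the strain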
Measurement parameters: S. cerevisiae deletion strains, growth OD, locus YJL129C, strain trk1, active compounds read low
The campaign covered roughly 5,500 compounds. About 2,000 (36%) were called active. Inconclusive results (about 18%) are left out. Some of the results follow.
Metric: normalized growth

[[record]]
compound = "CC(=O)O[C@]1(C)CC[C@@]23CC1C(C)(C)[C@@H]2CC[C@H]3C"
metric = "normalized growth"
numeric_readout = 0.981

[[record]]
compound = "CC12CCCCC1(Br)[N+](=O)N2[O-] (stereo not drawn)"
metric = "normalized growth"
numeric_readout = 0.997

[[record]]
compound = "CC(=O)O[C@H]1C[C@@H](OC(C)=O)C(C)(C)C2C[C@@H](O)[C@]3(C)C(CC[C@@]4(C)[C@H](c5ccoc5)OC(=O)[C@H]5O[C@]543)[C@]21C (stereo partly drawn)"
metric = "normalized growth"
numeric_readout = 0.96

[[record]]
compound = "C[C@@H]1CC[C@H]2C(C)(C)C3CC12CC[C@@]3(C)O (stereo partly drawn)"
metric = "normalized growth"
numeric_readout = 0.859

[[record]]
compound = "CC1(C)N([O-])[N+](=O)C1(C)Br (stereo not drawn)"
metric = "normalized growth"
numeric_readout = 0.976

[[record]]
compound = "CC(=O)O[C@@H]1CC2C(C)(C)[C@@H](O)CC[C@]2(C)C2CC[C@@]3(C)[C@H](c4ccoc4)OC(=O)[C@H]4O[C@]43[C@@]21C (stereo partly drawn)"
metric = "normalized growth"
numeric_readout = 0.976

[[record]]
compound = "CC(=O)O[C@H]1C[C@@H](OC(C)=O)C(C)(C)C2C[C@@H](OC(C)=O)[C@]3(C)C(CC[C@@]4(C)[C@H](c5ccoc5)OC(=O)[C@H]5O[C@]543)[C@]21C (stereo partly drawn)"
metric = "normalized growth"
numeric_readout = 0.979

[[record]]
compound = "CC1(C)C(=O)[C@@H]2O[C@@H]2[C@@]2(C)C1C[C@@H](O)[C@]1(C)C2CC[C@@]2(C)[C@H](c3ccoc3)OC(=O)C3OC321 (stereo partly drawn)"
metric = "normalized growth"
numeric_readout = 0.985

